Target: human erythrocyte plasma membrane Ca^2+ -ATPase (Homo sapiens)
Construct: Calmodulin-depleted erythrocyte membranes were prepared by continuous filtration through a hollow fibre; tissue New South Wales Red Cross Transfusion Service, Sydney; host or cells: human packed red blood cells (calmodulin-depleted erythrocyte membranes)
Assay: Ca^2+ -ATPase assay (erythrocyte membranes; Table 1)
Type: biochemical
Settings: read-out: INHIBITION OF Ca^2+ -ATPase PERCENT (%)
endpoint: inhibition at 100 µM (%)
State just the number; it will be interpreted in %.

- compound: "Oc1ccccc1C1CCCCC1 [2-cyclohexylphenol]"
  inhibition at 100 µM [%]: 28
- compound: "CC(C)(C)CC(C)(C)c1ccc(O)cc1 [4-tert-octylphenol, reference compound]"
  inhibition at 100 µM [%]: 94
- compound: "CCCCCCCCc1ccccc1O [2-octylphenol]"
  inhibition at 100 µM [%]: 100
- compound: "CCCCCCCCCc1ccccc1O [2-nonylphenol]"
  inhibition at 100 µM [%]: 95
- compound: "CCCCCCCCCc1ccc(O)cc1 [4-nonylphenol]"
  inhibition at 100 µM [%]: 22

inhibition at 100 µM reading for CCCCCCCCCCc1ccc(O)cc1 [4-decylphenol] : 24

inhibition at 100 µM reading for CCCCCCCCCc1cccc(O)c1 [3-nonylphenol] : 69

inhibition at 100 µM reading for Cc1cc(Cc2cc(C)cc(C(C)(C)C)c2O)c(O)c(C(C)(C)C)c1 [reference compound] : 74

----------
Target: human erythrocyte plasma membrane Ca^2+ -ATPase (Homo sapiens, UniProt P23634)
Construct: Calmodulin-depleted erythrocyte membranes were prepared by continuous filtration through a hollow fibre; tissue New South Wales Red Cross Transfusion Service, Sydney; host or cells: human packed red blood cells (calmodulin-depleted erythrocyte membranes)
Sequence (P23634 1-1205 isoform P23634-6): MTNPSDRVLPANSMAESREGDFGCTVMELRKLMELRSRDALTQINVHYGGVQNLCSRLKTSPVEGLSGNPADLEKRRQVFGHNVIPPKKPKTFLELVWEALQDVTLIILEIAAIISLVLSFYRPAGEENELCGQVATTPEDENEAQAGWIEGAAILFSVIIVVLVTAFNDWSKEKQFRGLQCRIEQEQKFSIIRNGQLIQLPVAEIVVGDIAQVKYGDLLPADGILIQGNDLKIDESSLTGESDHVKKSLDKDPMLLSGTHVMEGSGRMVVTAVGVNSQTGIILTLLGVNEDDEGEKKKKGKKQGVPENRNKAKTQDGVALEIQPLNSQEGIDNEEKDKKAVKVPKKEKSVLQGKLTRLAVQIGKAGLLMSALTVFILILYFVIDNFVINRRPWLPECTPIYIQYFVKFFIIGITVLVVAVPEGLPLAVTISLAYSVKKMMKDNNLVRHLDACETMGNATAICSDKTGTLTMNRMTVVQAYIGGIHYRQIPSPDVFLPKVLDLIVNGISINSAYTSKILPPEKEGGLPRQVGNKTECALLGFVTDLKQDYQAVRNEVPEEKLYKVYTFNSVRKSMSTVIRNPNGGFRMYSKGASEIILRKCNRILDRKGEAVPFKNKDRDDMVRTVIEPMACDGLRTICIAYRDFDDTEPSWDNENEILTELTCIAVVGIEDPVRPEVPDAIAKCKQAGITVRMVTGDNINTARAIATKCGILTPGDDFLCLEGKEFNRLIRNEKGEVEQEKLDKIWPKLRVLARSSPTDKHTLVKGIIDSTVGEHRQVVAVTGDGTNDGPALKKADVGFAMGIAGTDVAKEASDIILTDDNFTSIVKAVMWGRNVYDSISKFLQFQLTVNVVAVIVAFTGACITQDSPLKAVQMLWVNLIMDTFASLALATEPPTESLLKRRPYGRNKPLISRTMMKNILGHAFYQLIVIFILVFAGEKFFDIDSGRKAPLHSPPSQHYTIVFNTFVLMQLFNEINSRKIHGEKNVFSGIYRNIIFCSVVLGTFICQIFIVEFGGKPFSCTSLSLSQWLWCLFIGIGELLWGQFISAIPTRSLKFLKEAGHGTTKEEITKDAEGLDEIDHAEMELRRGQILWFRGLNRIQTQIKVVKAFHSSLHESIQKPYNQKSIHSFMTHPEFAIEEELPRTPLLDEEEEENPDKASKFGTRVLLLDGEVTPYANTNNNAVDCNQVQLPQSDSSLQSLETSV
Sequence (P35613 140-385 partner limits assumed): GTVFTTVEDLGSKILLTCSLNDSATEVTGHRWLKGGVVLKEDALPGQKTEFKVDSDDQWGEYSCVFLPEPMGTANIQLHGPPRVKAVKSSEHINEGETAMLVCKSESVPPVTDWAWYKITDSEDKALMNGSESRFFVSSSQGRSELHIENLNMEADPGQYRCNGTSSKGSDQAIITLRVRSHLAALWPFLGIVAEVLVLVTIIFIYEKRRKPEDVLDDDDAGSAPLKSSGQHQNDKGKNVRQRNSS
Experiment: Ca^2+ -ATPase assay (microplate method), absence (-CaM) and presence (+CaM) of calmodulin (Table 1A)
Format: biochemical
Conditions: presence of calmodulin (0.3 μM); read-out: IC50 (+CaM)
endpoint: pIC50
Note on units: pIC50 is unitless, being -log10 of a concentration expressed in mol/L.

Solved cases (5 shown):
- compound: "Oc1ccc(CCCCCCCCCCCCc2ccc(O)cc2O)c(O)c1 [1,12-bis(2,4-dihydroxyphenyl)dodecane]"
  pIC50: 4.70
- compound: "Oc1ccccc1CCCCCCCCc1ccccc1O [1,8-bis(2-hydroxyphenyl)octane]"
  pIC50: 4.62
- compound: "Cc1ccc(CCCCCCCCCCc2ccc(C)c(O)c2)cc1O [1,10-bis(3-hydroxy-4-methylphenyl)decane]"
  pIC50: 4.32
- compound: "Oc1ccc(CCCCCCCCCCCc2ccc(O)cc2O)c(O)c1 [1,11-bis(2,4-dihydroxyphenyl)undecane]"
  pIC50: 4.66
- compound: "CCCCCCCCCCCCc1ccc(O)cc1O [4-dodecylresorcinol, reference compound]"
  pIC50: 4.00

pIC50 reading for Oc1ccc2ccccc2c1CCCCCCCCCCc1c(O)ccc2ccccc12 [1,10-bis(2-hydroxy-1-naphthyl)decane] : 4.05

pIC50 reading for Oc1cccc(CCCCCCCCCCc2cccc(O)c2)c1 [1,10-bis(3-hydroxyphenyl)decane] : 4.49

pIC50 reading for Cc1ccc(O)c(CCCCCCCCCCc2cc(C)ccc2O)c1 [1,10-bis(2-hydroxy-5-methylphenyl)decane] : 4.69

pIC50 reading for Oc1ccc(CCCCCCCCc2ccc(O)cc2O)c(O)c1 [1,8-bis(2,4-dihydroxyphenyl)octane] : 4.32

pIC50 reading for Oc1ccccc1CCCCCCCCCc1ccccc1O [1,9-bis(2-hydroxyphenyl)nonane] : 4.85

pIC50 reading for Oc1ccccc1CCCCCCCCCCCCc1ccccc1O [1,12-bis(2-hydroxyphenyl)dodecane] : 4.89

pIC50 reading for Oc1ccccc1CCCCCCCCCCc1ccccc1O [1,10-bis(2-hydroxyphenyl)decane] : 5.05

pIC50 reading for Cc1ccc(CCCCCCCCCCc2ccc(C)cc2O)c(O)c1 [1,10-bis(2-hydroxy-4-methylphenyl)decane] : 4.54

pIC50 reading for Oc1ccc(CCCCCCCCCCc2ccc(O)cc2O)c(O)c1 [1,10-bis(2,4-dihydroxyphenyl)decane] : 4.80

Values from patent US5859067A
